Where these numbers come from: ChEMBL document CHEMBL4622902

pIC50: −log10 of the molar value.
The following compounds each carry a recorded pIC50 for Tyrosine-protein kinase JAK1 (Homo sapiens).
Value Type: pIC50

1 = O=C(Nc1nc2cccc(-c3ccc(C(=O)N4CC(F)(F)C4)cc3)n2n1)C1CC1
2 = O=C(Nc1nc2cccc(C3=CCN(C(=O)NCC(F)(F)F)CC3)n2n1)C1CC1
Select one. Lower pIC50: 1 or 2 // caller expects the label of the chosen entry
2

###

Consider the following IC50 values measured on Tyrosine-protein kinase JAK2 (Homo sapiens).
Sequence (O60674 whole entry): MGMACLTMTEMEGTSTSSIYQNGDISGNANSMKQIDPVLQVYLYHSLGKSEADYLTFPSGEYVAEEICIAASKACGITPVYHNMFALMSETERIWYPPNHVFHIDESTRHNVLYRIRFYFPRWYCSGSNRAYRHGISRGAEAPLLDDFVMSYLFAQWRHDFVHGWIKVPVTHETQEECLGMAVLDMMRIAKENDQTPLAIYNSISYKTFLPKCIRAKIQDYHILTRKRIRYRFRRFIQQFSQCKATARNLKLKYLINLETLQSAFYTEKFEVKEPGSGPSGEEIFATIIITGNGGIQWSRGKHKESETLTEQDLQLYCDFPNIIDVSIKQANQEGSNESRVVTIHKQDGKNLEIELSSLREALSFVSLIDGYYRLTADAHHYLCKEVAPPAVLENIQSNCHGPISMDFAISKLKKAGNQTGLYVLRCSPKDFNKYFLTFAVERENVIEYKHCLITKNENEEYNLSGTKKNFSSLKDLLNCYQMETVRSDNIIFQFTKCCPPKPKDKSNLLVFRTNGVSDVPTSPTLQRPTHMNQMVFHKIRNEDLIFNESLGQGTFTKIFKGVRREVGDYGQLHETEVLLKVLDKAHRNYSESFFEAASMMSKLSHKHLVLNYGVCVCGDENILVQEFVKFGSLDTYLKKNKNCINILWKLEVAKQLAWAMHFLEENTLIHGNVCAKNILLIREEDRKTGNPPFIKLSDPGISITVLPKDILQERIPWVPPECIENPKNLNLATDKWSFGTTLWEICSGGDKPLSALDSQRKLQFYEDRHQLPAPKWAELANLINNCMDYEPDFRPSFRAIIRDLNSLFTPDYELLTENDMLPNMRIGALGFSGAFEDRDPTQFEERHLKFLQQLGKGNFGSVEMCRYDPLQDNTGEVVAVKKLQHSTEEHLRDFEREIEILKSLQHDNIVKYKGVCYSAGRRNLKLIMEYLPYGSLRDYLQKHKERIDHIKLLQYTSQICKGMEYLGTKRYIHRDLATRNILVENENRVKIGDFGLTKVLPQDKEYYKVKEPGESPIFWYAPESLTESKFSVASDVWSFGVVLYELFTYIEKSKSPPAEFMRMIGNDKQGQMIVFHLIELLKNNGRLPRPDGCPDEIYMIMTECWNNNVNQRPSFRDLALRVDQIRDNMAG
Value Type: IC50 (nM)

P = O=C(Nc1nc2cccc(C3=CCN(C(=O)C4CC4(F)F)CC3)n2n1)C1CC1 (stereo unspecified)
Q = O=C(Nc1nc2cccc(C3=CCN(C(=O)NCC(F)(F)F)CC3)n2n1)C1CC1
Record comparison, field IC50: mark the lower of P and Q . To answer, give the label that identifies your chosen option.
P

###

Target Or System: Tyrosine-protein kinase JAK2 (Homo sapiens)
pIC50: −log10 of the molar value.
Value Type: pIC50

Reference set, count: 2
- Molecule: "N#CCNC(=O)N1CC=C(c2cccc3nc(NC(=O)C4CC4)nn23)CC1"
  Target Or System: "Tyrosine-protein kinase JAK2 (Homo sapiens)"
  Reported Measurement: 6.76
- Molecule: "O=C(Nc1nc2cccc(C3=CCN(C(=O)C4(C(F)(F)F)CC4)CC3)n2n1)C1CC1"
  Target Or System: "Tyrosine-protein kinase JAK2 (Homo sapiens)"
  Reported Measurement: 6.50

a = O=C(NCC(F)(F)F)c1ccc(-c2cccc3nc(NC(=O)C4CC4)nn23)cc1
b = C=C(C#N)C(O)c1ccc(-c2cccc3nc(NC(=O)C4CC4)nn23)cc1 (centres undefined)
pIC50 comparison. Which is larger, a or b ? Please indicate the selected item by its label.
b
